# target-desc: T1, human TfR ectodomain fused to a mouse IgG1 Fc fragment (human, UniProt P02786 89-760)
# T1 construct: extracellular domain; ectodomain fused to the N-terminal end of the Fc, made in-house; not shown: mouse IgG1 Fc fragment
# T1 sequence (P02786 89-760): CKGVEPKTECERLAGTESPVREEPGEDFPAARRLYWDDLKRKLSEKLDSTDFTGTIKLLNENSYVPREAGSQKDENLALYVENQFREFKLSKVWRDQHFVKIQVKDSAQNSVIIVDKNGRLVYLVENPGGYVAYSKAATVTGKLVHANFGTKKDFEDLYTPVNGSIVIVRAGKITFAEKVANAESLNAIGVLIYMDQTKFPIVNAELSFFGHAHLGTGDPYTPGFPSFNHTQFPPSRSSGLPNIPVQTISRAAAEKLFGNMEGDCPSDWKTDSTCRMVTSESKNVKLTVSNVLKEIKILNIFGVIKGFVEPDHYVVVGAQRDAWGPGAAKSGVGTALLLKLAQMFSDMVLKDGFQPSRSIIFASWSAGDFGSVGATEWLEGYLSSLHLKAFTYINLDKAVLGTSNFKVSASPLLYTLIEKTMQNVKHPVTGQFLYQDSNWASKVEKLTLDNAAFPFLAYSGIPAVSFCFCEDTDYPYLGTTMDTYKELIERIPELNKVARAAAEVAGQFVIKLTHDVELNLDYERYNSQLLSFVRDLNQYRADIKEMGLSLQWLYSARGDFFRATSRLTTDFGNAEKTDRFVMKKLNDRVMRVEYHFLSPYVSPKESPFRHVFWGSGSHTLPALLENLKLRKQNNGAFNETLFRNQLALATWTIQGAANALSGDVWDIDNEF
# test-protocol: SPR, kinetic
Give measured koff for each item. Keep answers brief.
One number for each entry, in s⁻¹.

binder	koff [s⁻¹]
VHH A19 (C5^V19) (VHH) VHH: EVQLVESGGGVVQPGGSLKLSCVASGTDFSINFIRWYRQAPGKQREFVAGFTATGNTNYADSMKGRFTISRDNTKNAVYLQIDSLKPEDTAVYYCYMLEKWGQGTQVTVSS	0.0097
C5^V30 (VHH) VHH: EVQLVESGGGVVQPGGSLKLSCVASGTDKSINFIRWYRQAPGKQREFVAGFTATGNTNYADSMKGRFTISRDNTKNAVYLQIDSLKPEDTAVYYCYMLDKWGQGTQVTVSS	0.03
C10a (VHH) VHH: EVQLVESGGGLVQAGDSLRLSCAASGFASHLYAIGWFRQAPGKEREKVSCISSNDGSTYYADSVKGRFTISRDTVKDMVYLQMNSLKPEDTAVYYCATDLTVHCFMAEYDWWGQGTQVTVSS	0.00726

Lab note: next binder to report on.
[ask] Data request, read-out koff, for VHH D (H3) (VHH) VHH: EVQLVESGGGEVQPGGSLKLSCVASGTDFSINFVRWYRQRPGKQREWVAGFTANGDTNYPDSMKGRFTISRDNAKNTVYLQINSLKSEDTAVYYCYMLDNWGQGTQVTVSS
[reply] 3.3e-05
